Test system: DeltatarO mutant
Test: S. aureus survival, RN4220 and DeltatarO strains – OD600, teichoic acid synthesis inhibitors, primary screen (AID 463173)
Details: S. aureus RN4220 wild type/DeltatarO growth, OD600, 18 h, screened at 18.75 µg/mL (by protocol)
Screen size: about 52,000 compounds; about 4,300 (8.3%) were called active. Cut-off read from the data, not from the text of the source: active = survival mostly below about 52% (no sharp cut-off); inactive = mostly above about 56%. Shown is part of a subset that was picked to be rich in actives.
Select the matching outcome among active, inactive

{"STRUCTURE_STRING": "Cc1ccn2c(Nc3ccccc3C)c(-c3ccncc3)nc2c1", "CATEGORY": "inactive"}
{"STRUCTURE_STRING": "Cc1nc(N2CCOCC2)c2c(C(=O)N3CCN(c4cccc(C(F)(F)F)c4)CC3)c(C)oc2n1", "CATEGORY": "inactive"}
{"STRUCTURE_STRING": "Fc1ccccc1N1CCN(c2ncnc3onc(-c4ccc(Cl)cc4)c23)CC1", "CATEGORY": "active"}
{"STRUCTURE_STRING": "Cc1ccc(COc2ccc3oc(-c4ccccc4)c(C(=O)O)c3c2)cc1", "CATEGORY": "active"}
{"STRUCTURE_STRING": "Cc1ccc(/C=C/c2onc(C)c2S(=O)(=O)N2CCC(C(=O)Nc3ccccc3C(F)(F)F)CC2)cc1", "CATEGORY": "inactive"}
{"STRUCTURE_STRING": "CCOC(=O)c1c(-c2ccc(OC)cc2)oc2ccc(OCc3ccc(C(=O)OC)cc3)cc12", "CATEGORY": "inactive"}
{"STRUCTURE_STRING": "CCOC(=O)c1c(-c2ccccc2)oc2ccc(N(C(C)=O)S(=O)(=O)c3ccccc3)cc12", "CATEGORY": "inactive"}
{"STRUCTURE_STRING": "CCOC(=O)c1c(-c2ccccc2)oc2cc(Br)c(OCC(N)=O)cc12", "CATEGORY": "inactive"}
{"STRUCTURE_STRING": "CCOC(=O)c1c(-c2ccccc2)oc2ccc(OCc3ccc(C)cc3)cc12", "CATEGORY": "active"}
{"STRUCTURE_STRING": "CCOC(=O)c1c(-c2ccc(OC)cc2)oc2ccc(OCc3ccccc3C)cc12", "CATEGORY": "inactive"}

Request: Test call, this compound: Fc1ccc(N2CCN(c3ncnc4onc(-c5ccc(Cl)cc5)c34)CC2)cc1
Response: inactive

Request: Test call, this compound: Cc1nc(N2CCOCC2)c2c(C(=O)N3CCN(c4ccc(Cl)cc4)CC3)c(C)oc2n1
Response: inactive

---

I'd be grateful if you could share measured survival for these entries.
System: DeltatarO mutant
Assay: S. aureus survival, RN4220 and DeltatarO strains – OD600, teichoic acid synthesis inhibitors, primary screen (AID 463173)
Settings: S. aureus RN4220 wild type/DeltatarO growth, OD600, 18 h, stronger effect = lower value, screened at 18.75 µg/mL (by protocol)
About 4,300 (8.3%) of roughly 52,000 compounds were called active. The entries come from a sample that favours actives as a whole.

Known survival results, listed for orientation:
{"MOLECULE": "COc1ccc(C2=NS(=O)(=O)N(C)C(C(=O)Nc3ccc(OC(F)(F)F)cc3)=C2)cc1", "TARGET_ENTITY": "DeltatarO mutant", "survival": "48% (active)"}
{"MOLECULE": "CN1C(C(=O)Nc2ccc(OC(F)(F)F)cc2)=CC(c2ccc3c(c2)OCO3)=NS1(=O)=O", "TARGET_ENTITY": "DeltatarO mutant", "survival": "80% (inactive)"}

Give me survival for each of these molecules, listed below.
1. CCOc1ccc2c(c1)NC(c1cccs1)=NC(c1ccc(F)cc1)=N2
2. CCOc1ccccc1NC(=O)CCCc1nc(-c2ccccc2Cl)no1
3. CC(C)C(=O)OCc1cc(=O)n2nc(C3CC3)sc2n1
4. CCOC(=O)c1ccc(NC(=O)CCCc2nc(-c3ccccc3Cl)no2)cc1
5. CN1C(C(=O)Nc2ccc(OC(F)(F)F)cc2)=CC(c2cccs2)=NS1(=O)=O
6. COc1cc(-c2noc(CCC(=O)Nc3cc(C)ccc3C)n2)cc(OC)c1OC

Response:
["50% (inactive)", "38% (active)", "86% (inactive)", "36% (active)", "31% (active)", "81% (inactive)"]

Give me survival for each of these molecules, listed below.
1. CCc1ccc(NC(=O)CCCc2nc(-c3ccco3)no2)cc1
2. CCC(C(=O)N1CCN(c2ccccn2)CC1)c1ccccc1 (stereo not drawn)
3. Cc1cc(Nc2cccc(C(F)(F)F)c2)nc2ccc(NC(=O)c3cccc(Cl)c3)cc12
4. COc1ccccc1-c1noc(CCCC(=O)Nc2cc(C)ccc2C)n1
5. O=C(CCCc1nc(-c2ccccc2)no1)Nc1cc(C(F)(F)F)cc(C(F)(F)F)c1

Response:
81% (inactive)
75% (inactive)
92% (inactive)
54% (inactive)
19% (active)

---

System: DeltatarO mutant
Test: S. aureus survival, RN4220 and DeltatarO strains – OD600, teichoic acid synthesis inhibitors, primary screen (AID 463173)
Conditions: S. aureus RN4220 wild type/DeltatarO growth, OD600, 18 h, stronger effect = lower value, screened at 18.75 µg/mL (by protocol)
The campaign covered roughly 52,000 compounds. About 4,300 (8.3%) were called active. The sample holds actives, similar compounds and a random draw of the others, so the mix is not that of the screen.
Output YES for records whose survival is lower than 80%, NO for records at or above 80%.

Observe how each entry below is paired with its result.
{"MOLECULE": "Cc1ccc2oc(C(=O)Nc3ccc(S(=O)(=O)N(C)Cc4ccccc4)cc3)cc(=O)c2c1", "CATEGORY": "YES"}
{"MOLECULE": "Cc1cc2nc(-c3cccc(NC(=O)COc4ccc(Cl)c(C)c4)c3)oc2cc1C", "CATEGORY": "YES"}
{"MOLECULE": "CCOc1ccc(CCNC(=O)c2nnc(Cc3ccc(Cl)cc3Cl)o2)cc1OCC", "CATEGORY": "NO"}
{"MOLECULE": "CCN1c2ccccc2-n2cccc2C12CCN(C(=O)Nc1ccccc1Br)CC2", "CATEGORY": "NO"}
{"MOLECULE": "CCOC(=O)CC(NC(=O)Cn1nnc(-c2ccc(C(F)(F)F)cc2)n1)c1ccccc1Cl (centres undefined)", "CATEGORY": "YES"}
{"MOLECULE": "Cc1cc(C)n2nc(-c3ccccc3)cc2n1", "CATEGORY": "NO"}
{"MOLECULE": "Cc1ccc2oc(-c3cc(NC(=O)Cc4ccccc4)ccc3Cl)nc2c1", "CATEGORY": "YES"}
{"MOLECULE": "CCOc1ccc(NC(=O)N(Cc2c[nH]c3ccccc23)C2CCCCC2)cc1", "CATEGORY": "YES"}
{"MOLECULE": "CCCCNC(=O)CSc1c2c(nc3ccc(Cl)cc13)CCCC2", "CATEGORY": "YES"}
{"MOLECULE": "CC(=O)c1ccc(NC(=O)CCc2c(C)nn(-c3ccc4nncn4n3)c2C)cc1", "CATEGORY": "NO"}

Request: Given the entry CCCCOc1ccc(C(=O)NCCc2csc3nc(-c4ccccc4F)nn23)cc1 , would its reported survival be below 80%?
Response: NO

Request: Given the entry O=C(Cn1cnc2nc3c(cc2c1=O)CCCC3)Nc1ccc(F)cc1Cl , would its reported survival be below 80%?
Response: NO

Request: Given the entry Cn1c(C(=O)NCc2ccccc2Cl)cc2sc(Cl)cc21 , would its reported survival be below 80%?
Response: YES

Request: Given the entry CCOc1ccc(CNC(=O)CSc2c3c(nc4ccc(Cl)cc24)CCCC3)cc1 , would its reported survival be below 80%?
Response: YES

---

Tested on: DeltatarO mutant
Assay: S. aureus survival, RN4220 and DeltatarO strains – OD600, teichoic acid synthesis inhibitors, primary screen (AID 463173)
Settings: S. aureus RN4220 wild type/DeltatarO growth, OD600, 18 h, stronger effect = lower value, screened at 18.75 µg/mL (by protocol)
Among all 52,000 compounds or so, about 4,300 (8.3%) were called active. The sample holds actives, similar compounds and a random draw of the others, so the mix is not that of the screen.
MEASUREMENT_KIND: survival (%)
Give bare numbers, in %.

Known survival results, listed for orientation:
{"COMPOUND": "COc1ccc(OC)c(S(=O)(=O)N2CCC(C(=O)NCCC3=CCCCC3)CC2)c1", "UNIT_LABEL": "%", "survival": 92}
{"COMPOUND": "Cc1cc(NC(=O)CSc2ccccc2)no1", "UNIT_LABEL": "%", "survival": 88}
{"COMPOUND": "C=Cc1ccc(CSc2nc(-c3ccc(Cl)cc3)nc3c2Cc2c(CO)cnc(C)c2O3)cc1", "UNIT_LABEL": "%", "survival": 70}

Give me survival for each of these compounds, listed below.
1. CCCN1C(=O)CC(C(=O)OC)=C1C
2. CN(C)S(=O)(=O)N1CCC(n2c(C(F)(F)F)nc3cccnc32)CC1
3. CCC(=O)N1c2ccc(S(=O)(=O)NCCc3ccccc3)cc2CC1C (stereo unspecified)
4. CCCCN(CCCC)CCNC(=O)Cn1nc(CC)n2c(cc3sc(C)cc32)c1=O
5. CC(C)CCNC(=O)c1ccc2c(c1)nc1n2CCCCC1

Response:
1: 81; 2: 94; 3: 77; 4: 85; 5: 86

Give me survival for each of these compounds, listed below.
1. Cc1ccc(-c2cc(C(F)F)n3ncc(C(=O)NCC4CCCO4)c3n2)cc1 (stereo unspecified)
2. O=c1oc2cc(O)ccc2cc1-c1nc(-c2ccc(Cl)c(Cl)c2)cs1
3. Cc1ccccc1CNC(=O)c1ccc2nc(SCc3ccc(F)cc3)n(C)c2c1

Response:
87
101
60
